Target: T1, rat PTH-1R (rat PTHR endogenously expressed on UMR-106 rat osteosarcoma cells) (rat, UniProt P25961 27-591)
T1 sequence (looked up): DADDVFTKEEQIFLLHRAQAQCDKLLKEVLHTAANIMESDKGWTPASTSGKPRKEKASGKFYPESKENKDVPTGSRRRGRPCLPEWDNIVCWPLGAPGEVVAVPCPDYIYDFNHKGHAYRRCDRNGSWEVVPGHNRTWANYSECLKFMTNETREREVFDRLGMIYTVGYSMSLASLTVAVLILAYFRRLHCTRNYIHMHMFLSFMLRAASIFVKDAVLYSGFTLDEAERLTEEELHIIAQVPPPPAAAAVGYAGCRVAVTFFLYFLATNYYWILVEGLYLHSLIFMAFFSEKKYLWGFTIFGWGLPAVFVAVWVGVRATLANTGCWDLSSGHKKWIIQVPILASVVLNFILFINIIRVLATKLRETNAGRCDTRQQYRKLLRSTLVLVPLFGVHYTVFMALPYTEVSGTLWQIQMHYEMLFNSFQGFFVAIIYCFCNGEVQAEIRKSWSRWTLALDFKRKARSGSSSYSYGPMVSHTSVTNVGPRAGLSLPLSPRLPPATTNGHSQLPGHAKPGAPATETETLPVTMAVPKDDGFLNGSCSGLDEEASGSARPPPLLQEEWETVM
Assay: cell-based or functional assay
Where no end group is shown, it is not given here. [ ]: non-standard residue; d: D form. αMePhe(2,6-F2) = C[C@](N)(Cc1c(F)cccc1F)C(=O)O; αMePhe(2-F) = C[C@](N)(Cc1ccccc1F)C(=O)O; hArg = N=C(N)NCCCC[C@H](N)C(=O)O; αMeF = C[C@](N)(Cc1ccccc1)C(=O)O; Cit = NC(=O)NCCC[C@H](N)C(=O)O; αMeP = C[C@@]1(C(=O)O)CCCN1; Nle = CCCC[C@H](N)C(=O)O; Ac5c = NC1(C(=O)O)CCCC1; Aib = CC(C)(N)C(=O)O
measured endpoint: cAMP released with respect to control, 10 nM peptide, UMR-106 cells

# count of solved cases: 3
>>> experimental_value("[Ac5c]V[Ac5c]EIQ[αMePhe(2-F)][Nle]HQ[hArg][αMeP]K[αMePhe(2-F)] [Seq. ID. 65]")
"82 percent of control"
>>> experimental_value("[Aib]V[Aib]EIQ[αMePhe(2-F)][Nle]HQ[hArg][αMeP]K[αMePhe(2,6-F2)] [Seq. ID. 91]")
"101 percent of control"
>>> experimental_value("[Aib]V[Aib]EIQ[αMePhe(2-F)][Nle]HQ[Aib]A[Aib][αMePhe(2-F)] [Seq. ID. 553]")
"98 percent of control"

Prompt line: // cAMP released with respect to control, 10 nM peptide, UMR-106 cells lookup, key: [Ac5c]V[Aib]EIQ[αMePhe(2-F)][Nle]HQ[Aib][Aib][Cit][αMePhe(2-F)] [Seq. ID. 540]
Response line: 57 percent of control

Prompt line: // cAMP released with respect to control, 10 nM peptide, UMR-106 cells lookup, key: [Aib]V[Ac5c]EIQ[αMePhe(2-F)][Nle]HQ[hArg]AK[αMeF] [Seq. ID. 30]
Response line: 51 percent of control
